Every entry's value here was drawn from a melting point compilation (Tetko et al.; mined from patent text by program, amines drawn as free bases though some values may be those of a salt).

I'd be grateful if you could share measured melting point for these entries.

Input: Supply reported melting point belonging to this compound: "CCOC(=O)Cc1nn(Cc2nc3cc(Br)ccc3s2)c(=O)c2ccccc12"
Output: 160 to 161 °C

Input: Read the entry COc1cc(C(C)O)c(F)cc1Cl (stereo not drawn) and write its reported melting point.
Output: 68.5 to 69.5 °C

Input: Fill in reported melting point for this entry: O=C(O)[C@H](Cc1ccc(C(F)(F)F)c(F)c1)[C@@H](O)c1ccc(F)cc1 (racemic)
Output: 74 to 75 °C

---

Measurement Type: melting point

Input: Please give measured melting point of the following entry: "Cc1cc(N)c(C)c(Cl)c1Oc1ccc(C(=O)c2ccc(Cl)cc2)cc1"
Output: 113 to 122 °C

Input: Provide one value: measured melting point of "CCOC(=O)c1c(C(F)(F)F)nc(C(F)(F)F)c(C)c1OC(C)C"
Output: 53 to 55 °C

Input: Respond only with melting point recorded for O=C1C(Br)CCN1c1ncc(C(F)(F)F)s1 (configuration not stated)
Output: 105 to 106 °C

Input: Quote melting point reported for "O=C(OC1CCCCCCC1)c1ncn2c1[C@@H]1CCCN1C(=O)c1c(Cl)cccc1-2" please.
Output: 183 to 184 °C

Input: Tell us which melting point value is on record for "Cc1oc(-c2ccccc2)nc1CCOc1ccc(C=C2SC(=O)NC2=O)cc1"
Output: 213 to 214 °C

Input: Please report melting point for the following compound: "COC1(c2cc(F)cc(Sc3ccc(Cc4ccc(F)cc4)cc3)c2)CCOCC1"
Output: 62 to 64 °C

Input: Specify reported melting point for the compound shown: NCc1cccnc1C1CCN(c2cc3c(cc2F)c(=O)c(C(=O)O)cn3C2CC2)C1 (configuration not stated)
Output: 246 to 248 °C

Input: Give me measured melting point, please, for this compound: "Nc1cccnc1N1CCN(C(=O)c2ccc(C(=O)O)cn2)CC1"
Output: 137 to 140 °C

Input: Determine from records and report melting point for CCCC1Cc2c3c(c(C)c(C)c2C1O)OC(C(=O)O)C3 (configuration not stated)
Output: 161 °C

Input: Please supply the value of reported melting point for the item "O=C(O)c1ccccc1-c1nnc(-c2ccc(C(F)(F)F)cc2)s1"
Output: > 300 °C

Input: Identify the reported melting point for the following entry. "CCCn1ncnc1COc1nn2c(-c3ccccc3)nnc2cc1-c1ccccc1"
Output: 211 to 213 °C

Input: State its melting point: O=C1Nc2c(ccc3ccccc23)OC1c1ccc(Cl)cc1 (configuration not stated)
Output: 230 to 232 °C

---

Please respond with reported melting point for every item in the list.

Input: Please give the documented melting point of "CC(C)NC1=NS(=O)(=O)c2ccc(C(C)C)cc2N1"
Output: 237 to 239 °C

Input: # return recorded melting point for entry CC12CCC(=O)C([N+](=O)[O-])=C1CCC1C2CCC2(C)C(O)CCC12 (stereo unspecified)
Output: 158 to 160 °C

Input: Give the reported value of melting point for this record: "Cc1cc([N+](=O)[O-])c(C)c(Cl)c1Oc1ccc(Cl)c2ccccc12"
Output: 135 to 137 °C

Input: Return the recorded melting point value; entry: "Cc1cccc2c(Nc3cccc(OCCN(CCCl)CCCl)c3)c3cccc(C(=O)NCCN(C)C)c3nc12"
Output: 129 to 130 °C

Input: Fill in melting point for record O=C(CN1C(=O)C(c2ccccc2)c2ccccc21)N1CCOCC1 (stereo unspecified)
Output: 153 to 154 °C

Input: Give the value of melting point reported for the following: "COc1ccc2c(c1)cc(Cc1cc3ccccc3n1S(=O)(=O)c1ccccc1)n2S(=O)(=O)c1ccccc1"
Output: 98 to 100 °C

Input: Item "CC[C@H](C)[C@H](NC(=O)OCc1ccccc1)C(=O)N[C@@H](C=O)Cc1c[nH]c2ccccc12" : provide melting point
Output: 163 to 164 °C

Input: Respond only with melting point recorded for "CN1CCC[C@H]1Cc1cc2cccnc2[nH]1"
Output: 130 to 131 °C

Input: Please list melting point recorded for the compound CNC1Cc2ccccc2C1Nc1ccc(Cc2ccccc2)cc1 (stereo unspecified)
Output: 137 to 138 °C

Input: Give melting point for the following compound: "CCCCC(C(=O)OC)(C(=O)OC)c1nc(C)nc2c1c(SC)nn2-c1c(Cl)cc(Cl)cc1Cl"
Output: 146 to 152 °C

Input: For the compound "N[C@@H](CC(C(=O)O)=C1CCCC1)C(=O)O" , report melting point.
Output: 205 °C

---

Please go through the items and note down their melting point.

Input: Read off the recorded melting point for "CC(=O)OCc1c(-c2ccccc2)oc2c(CO)cccc2c1=O"
Output: 204 to 206 °C

Input: Answer with the recorded melting point of Cc1ccccc1C1(c2ccc(OC(F)F)cc2)N=C(N)N(C)C1=O (stereo not given) only.
Output: 85 to 90 °C

Input: Let me know recorded melting point for "Clc1ccc2c(c1)N(c1ncnc3ccc(N4CCOCC4)cc13)CC2" , thanks.
Output: 277 to 279 °C

Input: State its melting point for this compound: O=C(O)C1CCc2c([nH]c3ccc(Cl)cc23)C1 (stereo not given)
Output: 196 to 197 °C

Input: In one line, give reported melting point of the entry "Cc1nn(C)c(F)c1C(=O)F" .
Output: 85 to 87 °C

Input: Using known records, supply melting point for CC1COCc2nc3c(N)nc4cc(CCC(=O)N5CCOCC5)ccc4c3n21 (stereo not given)
Output: 245 to 247 °C

Input: Please give measured melting point of the following entry: CC12CC(O)CC1C1CCc3cc(O)ccc3C1C(c1ccccc1)C2 (stereo not given)
Output: 241 to 247 °C

Input: Give me measured melting point, please, for this compound: O=C1OCCC1=Cc1ccccc1OCC(O)CN1CCC(c2ccc3ccccc3c2)CC1 (stereo not given)
Output: 127 to 128 °C

Input: Name the recorded melting point of the item "O=C(NC(=O)c1c(F)cccc1F)Nc1ccc(Br)cn1" in your answer.
Output: 232 to 235 °C

Input: Please report melting point for the following compound: C=C1CC2C(CCC3(C)C2CCC3(O)C(C)=O)C2(C)CCC(=O)C=C12 (stereo not given)
Output: 218 to 220 °C

Input: Given the compound COc1cc2c(cc1OC)[C@@H]1c3ccc(C)cc3C(=O)N(Cc3ccccc3)[C@H]1CC2 (relative stereo) , write its reported melting point.
Output: 154 to 157 °C

Input: Indicate its recorded melting point; the compound in question is Cc1nc(CC2OC(COC(=O)c3ccccc3)C(O)C2O)n2nc(Cl)ccc12 (stereo not given)
Output: 155 to 157 °C

Input: Specify melting point for OC12CCCC1N=C(S)N2c1ccccn1 (stereo not given) and stop.
Output: 126 to 127 °C

Input: Item "CC(C)OC(=O)c1cc(-n2c(=O)[nH]c3c(c2=O)CCC3)c(F)cc1Br" : provide melting point
Output: 214 to 216 °C

Input: Consider the compound CCN(CC)CCNC(=O)N1CCc2cc(OC)c(OC)cc2C1c1ccccc1 (stereo not given) . State its measured melting point.
Output: 97 to 98 °C

Input: Name the recorded melting point of the compound listed here: "CONCc1nc2c(N)nc3cc(OCc4ccccc4)ccc3c2n1CC1CCOCC1"
Output: 190 to 193 °C

Input: For "O=C(Nc1ccc(C(=O)N2CCCCc3ccccc32)c(Cl)c1)OCCOc1ccccc1" , write its melting point.
Output: 144 to 146 °C

Input: Given "CSc1ncc(C(=O)NC2CC2)c(Nc2ccc3cn[nH]c3c2)n1" , respond with its melting point.
Output: > 270 °C

Input: Give reported melting point value for "Cc1cccc(NC(=O)NCC(=O)N(CC(=O)OC(C)(C)C)c2ccccc2-c2ccccc2)c1"
Output: 177 °C

Input: Given the compound "CCCCCCCCCCCCn1c2cc(Br)ccc2c2ccc(Br)cc21" , write its reported melting point.
Output: 78 to 79 °C

Input: Supply melting point value. Item: "CCOC(=O)c1sc(OCC)nc1C(F)(F)F"
Output: 30.5 to 31.5 °C

Input: For the compound "O=C(O)COc1cccc(CCc2nc(-c3cccs3)c(-c3cccs3)o2)c1" , report melting point.
Output: 106 to 107 °C

Input: Please report the measured melting point for O=C1c2ccc3cc(C(=O)N4CCN(Cc5ccccc5)CC4)cnc3c2N=CC1[N+](=O)[O-] (stereo not given)
Output: 213 to 216 °C

Input: Write down melting point measured for item "O=c1c2cc(F)c(N3CCCC3)cc2n(-c2ccc(F)cc2)c(=O)n1O"
Output: 183 to 185 °C

Input: Return melting point (reported value) for this compound: CC(COc1c(-c2ccccc2)c(=O)oc2ccccc12)CN1CCOCC1 (stereo not given)
Output: 113 °C

---

Measurement Type: melting point

Input: Identify measured melting point associated with "CC(=Cc1ccc(-c2noc3cc(Cl)ccc23)cc1)[N+](=O)[O-]"
Output: 160 to 162 °C

Input: State, in one line, measured melting point of "CC(C)(C)OC(=O)CS(=O)(=O)c1cccc(-c2nc(=O)c3ccccc3s2)n1"
Output: 159 to 160 °C

Input: Please give the documented melting point of COC(=O)C(=C(C)C)N1CC(NC(=O)COc2ccccc2)C1=O (centres undefined)
Output: 154 to 155 °C

Input: Read off the recorded melting point for Cn1c(COc2ccc(CC3SC(=O)NC3=O)cc2)nc2ccc(Oc3ccc(NC(=O)Nc4ccc(C(F)(F)F)cc4)cc3)cc21 (centres undefined)
Output: 179 to 180 °C
